System: CCRIS mutagenicity, Ames/micronucleus/aberration tests
Assay: CCRIS mutagenicity studies
Conditions: Test System: AMES SALMONELLA TYPHIMURIUM; Strain/Indicator: TA98; Metabolic Activation: NONE
Text: The CCRIS database contains chemical records with carcinogenicity, mutagenicity, tumor promotion, and tumor inhibition test results. It was developed by the National Cancer Institute (NCI). Data are derived from studies cited in primary journals, current awareness tools, NCI reports, and other sources. Test results have been reviewed by experts in carcinogenesis and mutagenesis. CCRIS provides historical information from the years 1985 - 2011. It is no longer updated. […]
Active and inactive are the calls of the source. No rule for the calls is given here.
Labels: 1 for active, -1 for inactive

[
  {
    "compound": "Cc1[nH]c(=O)c(C#N)cc1-c1ccncc1",
    "categoryLabel": -1
  },
  {
    "compound": "Oc1cc(O)cc(O)c1",
    "categoryLabel": -1
  },
  {
    "compound": "NC(=O)CN1CC(O)CC1=O (configuration not stated)",
    "categoryLabel": -1
  },
  {
    "compound": "O=C(CCl)c1ccccc1",
    "categoryLabel": -1
  },
  {
    "compound": "CC(=O)c1ccc2c(c1)C(=O)C1(CC1)O2",
    "categoryLabel": -1
  },
  {
    "compound": "O=C(O)[C@@H]1Cc2c([nH]c3ccccc23)[C@H]([C@H]2CCNC2=S)N1",
    "categoryLabel": -1
  },
  {
    "compound": "CCSC(=O)N1CCCCCC1",
    "categoryLabel": -1
  },
  {
    "compound": "Cc1cc(S(=O)(=O)O)c2c(C)ccc(C(C)C)cc1-2",
    "categoryLabel": -1
  },
  {
    "compound": "CC1(C)C(C=C(Cl)Cl)C1C(=O)OCc1cccc(Oc2ccccc2)c1 (configuration not stated)",
    "categoryLabel": 1
  },
  {
    "compound": "C#C[C@]1(O)CC[C@H]2[C@@H]3CCc4cc(O)ccc4[C@H]3CC[C@@]21C",
    "categoryLabel": -1
  },
  {
    "compound": "O=C(N[C@@H](Cc1ccc(Cl)cc1)C(=O)O)OCc1ccccc1",
    "categoryLabel": -1
  },
  {
    "compound": "CNC(=O)CN(CCN(CCN(CC(=O)O)CC(=O)NC)CC(=O)O)CC(=O)O",
    "categoryLabel": -1
  }
]

----------
Test system: CCRIS mutagenicity, Ames/micronucleus/aberration tests
Assay: CCRIS mutagenicity studies
Conditions: Test System: AMES SALMONELLA TYPHIMURIUM; Strain/Indicator: TA100; Metabolic Activation: RAT, LIVER, S-9, AROCLOR 1254 (30%); Method: PREINCUBATION
Source text: The CCRIS database contains chemical records with carcinogenicity, mutagenicity, tumor promotion, and tumor inhibition test results. It was developed by the National Cancer Institute (NCI). Data are derived from studies cited in primary journals, current awareness tools, NCI reports, and other sources. Test results have been reviewed by experts in carcinogenesis and mutagenesis. CCRIS provides historical information from the years 1985 - 2011. It is no longer updated. […]
Active and inactive are the calls of the source. No rule for the calls is given here.
Labels: active, inactive

[
  {
    "compound": "Nc1ccc(Cl)cc1Cl",
    "categoryLabel": "inactive"
  },
  {
    "compound": "O=c1n(CC2CO2)c(=O)n(CC2CO2)c(=O)n1CC1CO1 (centres undefined)",
    "categoryLabel": "active"
  },
  {
    "compound": "CCCC(=O)Cl",
    "categoryLabel": "inactive"
  },
  {
    "compound": "O=C(OCC1CO1)C1CCCCC1C(=O)OCC1CO1 (centres undefined)",
    "categoryLabel": "active"
  },
  {
    "compound": "CCCCOP(=O)(OCCCC)Oc1ccccc1",
    "categoryLabel": "inactive"
  },
  {
    "compound": "CC(C)(C)OCC1CO1 (centres undefined)",
    "categoryLabel": "active"
  },
  {
    "compound": "Cc1cccc(Br)c1",
    "categoryLabel": "inactive"
  },
  {
    "compound": "ClC(Cl)c1ccccc1",
    "categoryLabel": "active"
  },
  {
    "compound": "c1cc2c3c(cccc3c1)CC2",
    "categoryLabel": "inactive"
  },
  {
    "compound": "CCCCCCCCCCCCCC(=O)O",
    "categoryLabel": "inactive"
  },
  {
    "compound": "Cc1ccc2cccnc2c1",
    "categoryLabel": "active"
  },
  {
    "compound": "CC(=O)CC(=O)Nc1ccccc1",
    "categoryLabel": "inactive"
  },
  {
    "compound": "CCCCCCCCCCCCC/C([O-])=N/[N+](C)(C)CC(C)O (centres undefined)",
    "categoryLabel": "inactive"
  },
  {
    "compound": "ClC(Cl)(Cl)Cl",
    "categoryLabel": "inactive"
  }
]

----------
System: CCRIS mutagenicity, Ames/micronucleus/aberration tests
Test: CCRIS mutagenicity studies
Details: Test System: AMES SALMONELLA TYPHIMURIUM; Strain/Indicator: TA98; Metabolic Activation: NONE; Method: STANDARD PLATE
The source made the active and inactive calls. How the calls were made is not given here.
measuredEndpoint: mutagenic call

[
  {
    "compound": "CCOC(=O)[C@H]1O[C@@H]1C(=O)N[C@@H](CC(C)C)C(=O)NCCC(C)C",
    "reportedValue": "inactive; negative"
  },
  {
    "compound": "CC(=O)OC1Cc2cc3cccc4ccc5ccc1c2c5c43 (stereo not drawn)",
    "reportedValue": "active; positive"
  },
  {
    "compound": "CC(=O)Nc1ccc(S(=O)(=O)O)c2cc(S(=O)(=O)O)c(N=Nc3ccc(N=Nc4ccc(S(=O)(=O)O)cc4)c4ccc(S(=O)(=O)O)cc34)c(O)c12",
    "reportedValue": "inactive; negative"
  },
  {
    "compound": "CCCC(O)C(CC)CO (stereo not drawn)",
    "reportedValue": "inactive; negative"
  },
  {
    "compound": "c1ccc2c(c1)OCCOCCOCCOCCO2",
    "reportedValue": "inactive; negative"
  },
  {
    "compound": "CN(C)CCC=C1c2ccccc2CCc2ccccc21",
    "reportedValue": "inactive; negative"
  },
  {
    "compound": "CCOC(=O)C(C)=O",
    "reportedValue": "inactive; negative"
  },
  {
    "compound": "Cc1cc(Cl)ccc1OCCCC(=O)O",
    "reportedValue": "inactive; negative"
  },
  {
    "compound": "O=C(Nc1ccc([N+](=O)[O-])cc1)c1csc([N+](=O)[O-])c1",
    "reportedValue": "active; positive"
  },
  {
    "compound": "OB(O)O",
    "reportedValue": "inactive; negative"
  },
  {
    "compound": "O=C1c2c(ccc3ccccc23)-c2ccc3ccccc3c21",
    "reportedValue": "inactive; negative"
  },
  {
    "compound": "c1ccc(CSSCc2ccccc2)cc1",
    "reportedValue": "inactive; negative"
  },
  {
    "compound": "CN1CCCC1=O",
    "reportedValue": "inactive; negative"
  }
]

----------
Test system: CCRIS mutagenicity, Ames/micronucleus/aberration tests
Test: CCRIS mutagenicity studies
Conditions: Test System: AMES SALMONELLA TYPHIMURIUM; Strain/Indicator: TA98; Metabolic Activation: NONE; Method: STANDARD PLATE
Calls of active or inactive are those of the source. No rule for the calls is given here.
Labels: active, inactive

[
  {
    "smilesCode": "O=CN(O)c1ccc(Cl)cc1",
    "measurementTarget": "CCRIS mutagenicity, Ames/micronucleus/aberration tests",
    "categoryLabel": "inactive"
  },
  {
    "smilesCode": "O=C(C(Cl)Cl)C(Cl)(Cl)Cl",
    "measurementTarget": "CCRIS mutagenicity, Ames/micronucleus/aberration tests",
    "categoryLabel": "active"
  },
  {
    "smilesCode": "CCCCOCCOCCO",
    "measurementTarget": "CCRIS mutagenicity, Ames/micronucleus/aberration tests",
    "categoryLabel": "inactive"
  },
  {
    "smilesCode": "CN(C)CCc1cc(O)ccc1CNc1ccccn1",
    "measurementTarget": "CCRIS mutagenicity, Ames/micronucleus/aberration tests",
    "categoryLabel": "inactive"
  },
  {
    "smilesCode": "CCOP(=S)(OCC)SCn1c(=O)oc2cc(Cl)ccc21",
    "measurementTarget": "CCRIS mutagenicity, Ames/micronucleus/aberration tests",
    "categoryLabel": "inactive"
  },
  {
    "smilesCode": "CC(=O)Nc1ccc([N+](=O)[O-])cc1",
    "measurementTarget": "CCRIS mutagenicity, Ames/micronucleus/aberration tests",
    "categoryLabel": "inactive"
  },
  {
    "smilesCode": "Nc1ncnc2c1ncn2C(c1ccccc1)c1ccccc1",
    "measurementTarget": "CCRIS mutagenicity, Ames/micronucleus/aberration tests",
    "categoryLabel": "inactive"
  },
  {
    "smilesCode": "NC(=O)CCC(=O)Nc1cc(Cl)c(Cl)c(Cl)c1",
    "measurementTarget": "CCRIS mutagenicity, Ames/micronucleus/aberration tests",
    "categoryLabel": "inactive"
  },
  {
    "smilesCode": "O=[N+]([O-])c1c2ccccc2c([N+](=O)[O-])c2ccccc12",
    "measurementTarget": "CCRIS mutagenicity, Ames/micronucleus/aberration tests",
    "categoryLabel": "inactive"
  },
  {
    "smilesCode": "COCCOCCOP1(OCCOCCOC)=NP(OCCOCCOC)(OCCOCCOC)=NP(OCCOCCOC)(OCCOCCOC)=N1",
    "measurementTarget": "CCRIS mutagenicity, Ames/micronucleus/aberration tests",
    "categoryLabel": "inactive"
  },
  {
    "smilesCode": "O=C1c2ccccc2-c2ccccc21",
    "measurementTarget": "CCRIS mutagenicity, Ames/micronucleus/aberration tests",
    "categoryLabel": "inactive"
  },
  {
    "smilesCode": "Nc1ccccc1N",
    "measurementTarget": "CCRIS mutagenicity, Ames/micronucleus/aberration tests",
    "categoryLabel": "inactive"
  },
  {
    "smilesCode": "Oc1ccc2ccccc2c1N=Nc1ccc(N=Nc2ccccc2)cc1",
    "measurementTarget": "CCRIS mutagenicity, Ames/micronucleus/aberration tests",
    "categoryLabel": "inactive"
  },
  {
    "smilesCode": "CC[n+]1c2ccccc2nc2ccccc21",
    "measurementTarget": "CCRIS mutagenicity, Ames/micronucleus/aberration tests",
    "categoryLabel": "inactive"
  },
  {
    "smilesCode": "COC(=O)C(C)(C)Oc1ccc(-c2ccc(Cl)cc2)cc1",
    "measurementTarget": "CCRIS mutagenicity, Ames/micronucleus/aberration tests",
    "categoryLabel": "inactive"
  },
  {
    "smilesCode": "O=C(O)c1ccc([N+](=O)[O-])cc1",
    "measurementTarget": "CCRIS mutagenicity, Ames/micronucleus/aberration tests",
    "categoryLabel": "active"
  },
  {
    "smilesCode": "CCON(OC(C)=O)C(=O)c1ccccc1",
    "measurementTarget": "CCRIS mutagenicity, Ames/micronucleus/aberration tests",
    "categoryLabel": "active"
  },
  {
    "smilesCode": "O=C(O)[C@@H]1CS[C@H](c2ccccc2O)N1C(=O)CCSSCCC(=O)N1[C@@H](c2ccccc2O)SC[C@H]1C(=O)O",
    "measurementTarget": "CCRIS mutagenicity, Ames/micronucleus/aberration tests",
    "categoryLabel": "inactive"
  },
  {
    "smilesCode": "O=C1OC2(c3ccccc31)c1cc(I)c(O)c(I)c1Oc1c2cc(I)c(O)c1I",
    "measurementTarget": "CCRIS mutagenicity, Ames/micronucleus/aberration tests",
    "categoryLabel": "inactive"
  },
  {
    "smilesCode": "O=PO.O=PO.[Mn+2]",
    "measurementTarget": "CCRIS mutagenicity, Ames/micronucleus/aberration tests",
    "categoryLabel": "inactive"
  },
  {
    "smilesCode": "O=[N+]([O-])c1ccc2[nH]ccc2c1",
    "measurementTarget": "CCRIS mutagenicity, Ames/micronucleus/aberration tests",
    "categoryLabel": "active"
  },
  {
    "smilesCode": "Cc1c(N)cnc2c1nc1c(C)cccn12",
    "measurementTarget": "CCRIS mutagenicity, Ames/micronucleus/aberration tests",
    "categoryLabel": "inactive"
  },
  {
    "smilesCode": "CN(C(=O)CCCCl)c1snc2ccccc12",
    "measurementTarget": "CCRIS mutagenicity, Ames/micronucleus/aberration tests",
    "categoryLabel": "inactive"
  },
  {
    "smilesCode": "CC1=CC(C)(C)Nc2ccccc21",
    "measurementTarget": "CCRIS mutagenicity, Ames/micronucleus/aberration tests",
    "categoryLabel": "inactive"
  },
  {
    "smilesCode": "Cc1ccc(-c2nc3n(c2[N+](=O)[O-])CCS3)cc1",
    "measurementTarget": "CCRIS mutagenicity, Ames/micronucleus/aberration tests",
    "categoryLabel": "inactive"
  }
]
